# TARGET_SYSTEM: full length SARS-CoV-2 3CL protease (Severe acute respiratory syndrome coronavirus 2, UniProt P0DTD1)
PROPERTY: Ki

INSERT INTO measurements (test_smiles, value_measured) VALUES
  ('CC(C)(C)C(=O)N[C@H](C(=O)N1C[C@H]2[C@@H]([C@H]1C(=O)N[C@@H](C[C@@H]1CCNC1=O)C(=O)c1nc3ccccc3s1)C2(C)C)C(C)(C)C', '0.0991 µM'),
  ('CC(C)(C)[C@H](NS(=O)(=O)C(C)(C)C)C(=O)N1C[C@H]2[C@@H]([C@H]1C(=O)N[C@@H](C[C@@H]1CCNC1=O)C(=O)c1nc3ccccc3s1)C2(C)C', '0.0137 µM'),
  ('CC(C)[C@H](NS(C)(=O)=O)C(=O)N1CC2(CC2)C[C@H]1C(=O)N[C@@H](C[C@@H]1CCNC1=O)C(=O)c1nc2ccccc2s1', '0.0202 µM');

----------
# TARGET_SYSTEM: full length SARS-CoV-2 3CL protease (Severe acute respiratory syndrome coronavirus 2, UniProt P0DTD1)
pKi: −log10 of the molar value.
PROPERTY: pKi

INSERT INTO results (compound, value_measured) VALUES
  ('COc1cccc2[nH]c(C(=O)N3C[C@H]4[C@@H]([C@H]3C(=O)N[C@@H](C[C@@H]3CCNC3=O)C(=O)c3nc5ccccc5s3)C4(C)C)cc12 [Example 2]', 6.69),
  ('CCC(=O)N[C@H](C(=O)N1C[C@H]2[C@@H]([C@H]1C(=O)N[C@@H](C[C@@H]1CCNC1=O)C(=O)c1nc3ccccc3s1)C2(C)C)C(C)(C)C [Example 15]', 8.21),
  ('CC(C)C(=O)N[C@H](C(=O)N1C[C@H]2[C@@H]([C@H]1C(=O)N[C@@H](C[C@@H]1CCNC1=O)C(=O)c1nc3ccccc3s1)C2(C)C)C(C)(C)C [Example 14]', 8.22),
  ('CC(C)[C@H](NS(=O)(=O)C1CC1)C(=O)N1C[C@H]2[C@@H]([C@H]1C(=O)N[C@@H](C[C@@H]1CCNC1=O)C(=O)c1nc3ccccc3s1)C2(C)C [Example 10]', 7.71),
  ('CCS(=O)(=O)N[C@H](C(=O)N1C[C@H]2[C@@H]([C@H]1C(=O)N[C@@H](C[C@@H]1CCNC1=O)C(=O)c1nc3ccccc3s1)C2(C)C)C(C)C [Example 16]', 7.99);
